Where these numbers come from: paper PMC5705954

- Measurement Target: human serum albumin (HSA) (Homo sapiens, UniProt P02768)
- Sequence (P02768 25-609): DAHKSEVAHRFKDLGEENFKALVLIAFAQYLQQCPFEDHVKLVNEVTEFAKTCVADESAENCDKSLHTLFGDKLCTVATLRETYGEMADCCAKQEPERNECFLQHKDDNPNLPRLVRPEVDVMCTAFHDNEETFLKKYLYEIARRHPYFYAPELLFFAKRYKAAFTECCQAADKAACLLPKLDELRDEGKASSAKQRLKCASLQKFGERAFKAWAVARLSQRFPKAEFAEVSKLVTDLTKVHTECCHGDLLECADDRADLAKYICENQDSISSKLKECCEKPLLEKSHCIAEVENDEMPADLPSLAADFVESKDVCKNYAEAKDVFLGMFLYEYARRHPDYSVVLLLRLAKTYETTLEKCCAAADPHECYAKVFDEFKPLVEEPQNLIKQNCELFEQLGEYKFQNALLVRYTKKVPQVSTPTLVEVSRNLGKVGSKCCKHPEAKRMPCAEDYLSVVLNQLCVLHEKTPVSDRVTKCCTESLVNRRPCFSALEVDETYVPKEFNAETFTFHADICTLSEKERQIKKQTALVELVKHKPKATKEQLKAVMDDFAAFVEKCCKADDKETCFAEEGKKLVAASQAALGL
- Assay Summary: Fluorescence quenching of HSA by aflatoxins
- Format: binding
- Design: purchased Sigma-Aldrich
- Measurement Context: pH 7.4
Parameter Measured: logK (binding constant)
Just the number, please, no unit after it.

>>> recorded_value("COc1cc2c(c3oc(=O)c4c(c13)CCOC4=O)C1C=COC1O2 (centres unmarked) [AFG1, aflatoxin G1]")
4.58
>>> recorded_value("COc1cc2c(c3oc(=O)c4c(c13)CCC4=O)[C@@]1(O)C=CO[C@H]1O2 [AFM1, aflatoxin M1]")
4.52
>>> recorded_value("COc1cc2c(c3oc(=O)c4c(c13)CCOC4=O)[C@@H]1CCO[C@@H]1O2 [AFG2, aflatoxin G2]")
4.34
>>> recorded_value("COc1cc2c(c3oc(=O)c4c(c13)CCC4=O)[C@H]1C=CO[C@H]1O2 [AFB1, aflatoxin B1]")
4.65

Now turn to the next compound.
Prompt: State its logK (binding constant) on human serum albumin (HSA) (Homo sapiens, UniProt P02768): COc1cc2c(c3oc(=O)c4c(c13)CCC4=O)[C@@H]1CCO[C@@H]1O2 [AFB2, aflatoxin B2]
Response: 4.55

====

- Measurement Target: human serum albumin (HSA) (Homo sapiens, UniProt P02768)
- Assay Summary: Fluorescence quenching of HSA by aflatoxins
- Type: binding
- Set-up: purchased Sigma-Aldrich
- Measurement Context: pH 7.4
Parameter Measured: logKSV (Stern-Volmer quenching constant)
Just the number, please, no unit after it.

Prompt: So what does the record say about logKSV (Stern-Volmer quenching constant) for COc1cc2c(c3oc(=O)c4c(c13)CCOC4=O)C1C=COC1O2 (centres unmarked) [AFG1, aflatoxin G1] ?
Response: 4.33

====

# n (number of binding sites) listing for each entry below
- Measurement Target: human serum albumin (HSA) (Homo sapiens, UniProt P02768)
- Assay Summary: Fluorescence quenching of HSA by aflatoxins
- Type: binding
- Set-up: purchased Sigma-Aldrich
- Measurement Context: pH 7.4
Just the number, please, no unit after it.

Examples from the recorded data:
>>> recorded_value("COc1cc2c(c3oc(=O)c4c(c13)CCC4=O)[C@H]1C=CO[C@H]1O2 [AFB1, aflatoxin B1]")
1.005
>>> recorded_value("COc1cc2c(c3oc(=O)c4c(c13)CCC4=O)[C@@]1(O)C=CO[C@H]1O2 [AFM1, aflatoxin M1]")
1.004
>>> recorded_value("COc1cc2c(c3oc(=O)c4c(c13)CCOC4=O)C1C=COC1O2 (centres unmarked) [AFG1, aflatoxin G1]")
1.020

Prompt: So what does the record say about n (number of binding sites) for COc1cc2c(c3oc(=O)c4c(c13)CCOC4=O)[C@@H]1CCO[C@@H]1O2 [AFG2, aflatoxin G2] ?
Response: 1.017

Prompt: So what does the record say about n (number of binding sites) for COc1cc2c(c3oc(=O)c4c(c13)CCC4=O)[C@@H]1CCO[C@@H]1O2 [AFB2, aflatoxin B2] ?
Response: 1.054

====

- Measurement Target: human serum albumin (HSA) (Homo sapiens)
- Assay Summary: Fluorescence quenching of HSA by aflatoxins
- Format: binding
- Set-up: purchased Sigma-Aldrich
- Measurement Context: pH 7.4
- Method: In order to characterize aflatoxin-HSA interactions, fluorescence quenching studies were performed. Increasing aflatoxin concentrations (0–10 μM) were added to a standard amount of HSA (2 μM) then fluorescence emission spectra of HSA were recorded (λexc = 280 nm). […] To exclude the possible involvement of the inner filter effect, fluorescence emission intensities were corrected based on the absorbance of aflatoxins (Equation (1)). […]. […]
Parameter Measured: logKa (association constant)
Just the number, please, no unit after it.

>>> recorded_value("COc1cc2c(c3oc(=O)c4c(c13)CCOC4=O)C1C=COC1O2 (centres unmarked)")
4.43

Prompt: So what does the record say about logKa (association constant) for COc1cc2c(c3oc(=O)c4c(c13)CCOC4=O)[C@@H]1CCO[C@@H]1O2 ?
Response: 4.04

Prompt: So what does the record say about logKa (association constant) for COc1cc2c(c3oc(=O)c4c(c13)CCC4=O)[C@@]1(O)C=CO[C@H]1O2 ?
Response: 4.26

Prompt: So what does the record say about logKa (association constant) for COc1cc2c(c3oc(=O)c4c(c13)CCC4=O)[C@H]1C=CO[C@H]1O2 ?
Response: 4.46

Prompt: So what does the record say about logKa (association constant) for COc1cc2c(c3oc(=O)c4c(c13)CCC4=O)[C@@H]1CCO[C@@H]1O2 ?
Response: 4.40

====

- Measurement Target: human serum albumin (HSA) (Homo sapiens, UniProt P02768)
- Assay Summary: Fluorescence quenching of HSA by aflatoxins
- Assay type: binding
- Design: purchased Sigma-Aldrich
- Measurement Context: pH 7.4
Parameter Measured: logKSV (Stern-Volmer quenching constant)
Just the number, please, no unit after it.

Examples from the recorded data:
>>> recorded_value("COc1cc2c(c3oc(=O)c4c(c13)CCC4=O)[C@@]1(O)C=CO[C@H]1O2 [AFM1, aflatoxin M1]")
4.28
>>> recorded_value("COc1cc2c(c3oc(=O)c4c(c13)CCC4=O)[C@H]1C=CO[C@H]1O2 [AFB1, aflatoxin B1]")
4.44
>>> recorded_value("COc1cc2c(c3oc(=O)c4c(c13)CCOC4=O)[C@@H]1CCO[C@@H]1O2 [AFG2, aflatoxin G2]")
3.96

Now turn to the next molecule.
Prompt: So what does the record say about logKSV (Stern-Volmer quenching constant) for COc1cc2c(c3oc(=O)c4c(c13)CCC4=O)[C@@H]1CCO[C@@H]1O2 [AFB2, aflatoxin B2] ?
Response: 4.21
